test: Comparative pharmacokinetics of nitenpyram administered orally and topically to cats (Example 4); type: in vivo; conditions: both sexes, in vivo, oral administration, Capstar tablet 11.4 mg nitenpyram, read-out: Thalf: half-life time (converted)
Measured Metric: half-life (h)
Report only the number, with the unit h understood.

Tell me measured half-life for CCN(Cc1ccc(Cl)nc1)/C(=C/[N+](=O)[O-])NC please.
9.8

* * *

assay: Comparative pharmacokinetics of nitenpyram administered orally and topically to cats (Example 4); assay type: in vivo; details: both sexes, in vivo, po, 11.4 mg, oral administration, Capstar tablet 11.4 mg nitenpyram, read-out: Cmax: maximum amount of nitenpyram in the plasma
Measured Metric: Cmax

Tell me measured Cmax for CCN(Cc1ccc(Cl)nc1)/C(=C/[N+](=O)[O-])NC please.
> 5800 ng/mL

* * *

Assay: Comparative pharmacokinetics of nitenpyram administered orally and topically to cats (Example 4)
Assay type: in vivo
Conditions: both sexes, in vivo, oral administration, Capstar tablet 11.4 mg nitenpyram, read-out: AUCtot: area under the curve of the nitenpyram concentration over time determined between t0 and the final measurement
Protocol: In this example, a comparative study of the pharmacokinetics of nitenpyram administered topically and orally to cats was carried out. The cats used in this study were prepared under the same conditions as those described in example 1. It was verified, beforehand, that no trace of nitenpyram was detected in the plasma of the cats. […]
Measured Metric: AUC (ng·h/mL)
Report only the number, with the unit ng·h/mL understood.

Tell me measured AUC for CCN(Cc1ccc(Cl)nc1)/C(=C/[N+](=O)[O-])NC please.
76800

* * *

assay: Comparative pharmacokinetics of nitenpyram administered orally and topically to cats (Example 4); format: in vivo; conditions: female, plasma, topical or ocular, 50 mg per cat, topical administration, 10% solution 0.5 ml per cat, read-out: Thalf: half-life time (converted)
Measured Metric: half-life

Tell me measured half-life for CCN(Cc1ccc(Cl)nc1)/C(=C/[N+](=O)[O-])NC [nitenpyram] please.
69.1 h
